# assayed_target: Human CD137 ECD (human)
# Sequence (chain, as listed by the source limits assumed): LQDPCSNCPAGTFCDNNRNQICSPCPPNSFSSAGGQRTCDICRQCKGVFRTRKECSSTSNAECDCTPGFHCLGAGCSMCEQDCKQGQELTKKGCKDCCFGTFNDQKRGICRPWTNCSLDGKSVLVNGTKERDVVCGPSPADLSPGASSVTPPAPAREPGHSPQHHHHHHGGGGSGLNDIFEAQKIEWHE
# experimental_protocol: SPR, vs parent H183/L072
Each entry below carries its reported fold change of affinity.
// units = fold; emit number, no label

dBBDu183H Y94G / dBBDu072L (antibody, name in Kabat numbering, V domains shown) VH: QVQLVESGGGLVQPGRSLRLSCAASGFTFSNAWMHWVRQAPGKGLEWVAQIKDKGNAYAAYYAPSVKGRFTISRDDSKNSIYLQMNSLKTEDTAVYYCHGVHYASASTVLPAFGVDAWGQGTTVTVSS VL: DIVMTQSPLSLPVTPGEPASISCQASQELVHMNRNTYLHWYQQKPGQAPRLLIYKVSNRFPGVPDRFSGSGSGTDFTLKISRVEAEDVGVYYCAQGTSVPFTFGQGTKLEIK	0

Okay, next one:
Enquiry: Record request: fold change of affinity value, item dBBDu183H H96S / dBBDu072L (antibody, name in Kabat numbering, V domains shown) VH: QVQLVESGGGLVQPGRSLRLSCAASGFTFSNAWMHWVRQAPGKGLEWVAQIKDKGNAYAAYYAPSVKGRFTISRDDSKNSIYLQMNSLKTEDTAVYYCHYVSYASASTVLPAFGVDAWGQGTTVTVSS VL: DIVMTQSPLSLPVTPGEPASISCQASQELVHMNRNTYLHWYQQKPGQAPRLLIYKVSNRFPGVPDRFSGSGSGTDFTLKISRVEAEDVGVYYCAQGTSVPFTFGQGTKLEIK
Return: 0
